assay: Rat pharmacokinetics; type: in vivo, Sprague-Dawley rats; conditions: Sprague-Dawley, rat, in vivo, iv, 1 mg/kg
Documented clearance across a set of compounds
reported endpoint: clearance (mL/min/kg)

>>> value_measured("O=C(c1cccc2ccccc12)N1Cc2ccccc2CC1COCc1ccccc1 (stereo not drawn)")
39
>>> value_measured("CC(C)(C)OC(=O)CN(Cc1ccc(Cl)cc1)Cc1ccc([N+](=O)[O-])s1")
353
>>> value_measured("O=C(c1cccc2ccccc12)N1Cc2ccccc2CC1CNCc1ccccc1 (stereo not drawn)")
43
